Source listed as paper PMC7587960.

molecules and their reported pIC50
test system: influenza A virus (strain A/WSN/33 (H1N1)); test: microbe, parasite or virus in culture; settings: A549, 24 h, read-out: IC50 IAV (Strain WSN/33 (H1N1)), A549 cells
pIC50: −log10 of the molar value.

Completed entries (count: 2):
C[C@]12CC[C@H](O)C[C@H]1CC[C@@H]1[C@@H]2CC[C@]2(C)[C@@H](C3=CC(=O)OC3)CC[C@]12O [Digitoxigenin, digitoxigenin, reference compound]	7.15
C[C@]12CC[C@H](NC(=O)CNCCO)C[C@H]1CC[C@@H]1[C@@H]2CC[C@]2(C)[C@@H](C3=CC(=O)OC3)CC[C@]12O	~7.22

Consider now this further molecule.
(Q) Recorded pIC50 for C[C@]12CC[C@H](NC(=O)CO)C[C@H]1CC[C@@H]1[C@@H]2CC[C@]2(C)[C@@H](C3=CC(=O)OC3)CC[C@]12O , please?
(A) ~7.22
